Source of measurements: ChEMBL document CHEMBL3992544

target: Fibroblast growth factor receptor 1 (Homo sapiens); assay: Inhibition of recombinant human GST-tagged FGFR1 cytoplasmic domain (398 to 822 residues) expressed in baculovirus expression system preincubated for 10 mins followed by FAM-labeled peptide substrate addition measured after 1 hr by mobility shift assay
Sequence (P11362 whole entry, the tested form may be a part): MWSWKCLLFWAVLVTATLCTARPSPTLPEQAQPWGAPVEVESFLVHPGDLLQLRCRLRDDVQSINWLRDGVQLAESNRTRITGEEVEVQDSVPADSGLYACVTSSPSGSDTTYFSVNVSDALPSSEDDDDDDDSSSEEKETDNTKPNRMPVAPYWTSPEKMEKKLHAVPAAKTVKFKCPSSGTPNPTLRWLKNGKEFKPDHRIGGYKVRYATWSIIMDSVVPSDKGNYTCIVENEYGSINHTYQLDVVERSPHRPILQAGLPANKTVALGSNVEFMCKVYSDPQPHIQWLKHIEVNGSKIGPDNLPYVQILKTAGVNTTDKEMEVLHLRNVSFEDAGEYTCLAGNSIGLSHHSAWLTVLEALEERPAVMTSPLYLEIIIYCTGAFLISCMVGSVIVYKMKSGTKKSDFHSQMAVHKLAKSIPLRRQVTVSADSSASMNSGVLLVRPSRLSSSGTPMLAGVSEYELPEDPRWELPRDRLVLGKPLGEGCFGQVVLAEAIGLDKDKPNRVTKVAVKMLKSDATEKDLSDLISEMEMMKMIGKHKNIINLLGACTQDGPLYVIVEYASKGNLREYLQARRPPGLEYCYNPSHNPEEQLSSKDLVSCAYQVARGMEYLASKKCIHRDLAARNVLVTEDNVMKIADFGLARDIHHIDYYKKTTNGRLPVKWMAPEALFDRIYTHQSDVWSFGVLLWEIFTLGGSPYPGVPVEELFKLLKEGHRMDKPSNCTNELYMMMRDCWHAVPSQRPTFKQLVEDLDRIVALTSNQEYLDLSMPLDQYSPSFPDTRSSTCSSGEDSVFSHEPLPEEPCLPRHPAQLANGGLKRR
pIC50: −log10 of the molar value.
readoutKind: pIC50

entrySmiles: COC(=O)c1ccc2c(c1)NC(=O)/C2=C(\Nc1ccc(-n2cccc2CN(C)C)cc1)c1ccccc1
experimentalTarget: Fibroblast growth factor receptor 1 (Homo sapiens)
measuredValue: < 6.30

====

pIC50 overview
target: Platelet-derived growth factor receptor beta (Homo sapiens)
Sequence (P09619 whole entry): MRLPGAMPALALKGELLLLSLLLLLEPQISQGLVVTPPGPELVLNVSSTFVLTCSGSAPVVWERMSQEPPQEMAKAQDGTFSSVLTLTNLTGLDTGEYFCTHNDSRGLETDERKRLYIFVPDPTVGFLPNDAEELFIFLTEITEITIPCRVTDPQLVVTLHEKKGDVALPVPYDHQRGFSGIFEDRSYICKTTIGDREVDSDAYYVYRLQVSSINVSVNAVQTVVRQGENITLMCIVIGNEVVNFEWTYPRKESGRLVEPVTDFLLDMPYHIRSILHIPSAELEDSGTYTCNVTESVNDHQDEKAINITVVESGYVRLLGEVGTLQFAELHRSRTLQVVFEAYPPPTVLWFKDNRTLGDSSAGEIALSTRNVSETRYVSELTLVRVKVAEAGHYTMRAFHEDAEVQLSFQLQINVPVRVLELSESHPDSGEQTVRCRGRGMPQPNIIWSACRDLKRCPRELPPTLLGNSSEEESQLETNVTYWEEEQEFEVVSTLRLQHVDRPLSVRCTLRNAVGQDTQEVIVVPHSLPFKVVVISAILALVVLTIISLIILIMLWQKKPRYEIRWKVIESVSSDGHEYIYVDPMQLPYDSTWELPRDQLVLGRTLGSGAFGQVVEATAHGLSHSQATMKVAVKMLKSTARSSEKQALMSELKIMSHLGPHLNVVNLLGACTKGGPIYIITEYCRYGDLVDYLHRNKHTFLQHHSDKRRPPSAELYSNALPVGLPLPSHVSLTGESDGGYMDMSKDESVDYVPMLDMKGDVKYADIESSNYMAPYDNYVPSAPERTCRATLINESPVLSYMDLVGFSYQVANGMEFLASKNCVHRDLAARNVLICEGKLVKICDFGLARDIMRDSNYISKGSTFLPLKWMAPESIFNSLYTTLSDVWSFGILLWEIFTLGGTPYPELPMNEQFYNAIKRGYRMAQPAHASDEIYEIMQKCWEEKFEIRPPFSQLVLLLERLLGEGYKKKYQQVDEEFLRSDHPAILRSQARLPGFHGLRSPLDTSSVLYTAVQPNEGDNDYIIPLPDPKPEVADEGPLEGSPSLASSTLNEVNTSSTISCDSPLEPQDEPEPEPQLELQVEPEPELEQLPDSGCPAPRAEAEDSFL
pIC50: −log10 of the molar value.

entrySmiles: COC(=O)c1ccc2c(c1)NC(=O)/C2=C(\Nc1ccc(Cn2cccc2CN(C)C)cc1)c1ccccc1
experimentalTarget: Platelet-derived growth factor receptor beta (Homo sapiens)
pIC50: 7.53
//
entrySmiles: COC(=O)c1ccc2c(c1)NC(=O)/C2=C(\Nc1ccc(Cn2cccc2CN2CCN(C)CC2)cc1)c1ccccc1
experimentalTarget: Platelet-derived growth factor receptor beta (Homo sapiens)
pIC50: 7.17

====

biological target: Vascular endothelial growth factor receptor 1 (Homo sapiens, UniProt P17948); assay: Inhibition of recombinant human GST-tagged VEGFR1 cytoplasmic domain (781 to 1338 residues) expressed in baculovirus expression system preincubated for 10 mins followed by FAM-labeled peptide substrate addition measured after 1 hr by mobility shift assay
Sequence (P17948 whole entry, the tested form may be a part): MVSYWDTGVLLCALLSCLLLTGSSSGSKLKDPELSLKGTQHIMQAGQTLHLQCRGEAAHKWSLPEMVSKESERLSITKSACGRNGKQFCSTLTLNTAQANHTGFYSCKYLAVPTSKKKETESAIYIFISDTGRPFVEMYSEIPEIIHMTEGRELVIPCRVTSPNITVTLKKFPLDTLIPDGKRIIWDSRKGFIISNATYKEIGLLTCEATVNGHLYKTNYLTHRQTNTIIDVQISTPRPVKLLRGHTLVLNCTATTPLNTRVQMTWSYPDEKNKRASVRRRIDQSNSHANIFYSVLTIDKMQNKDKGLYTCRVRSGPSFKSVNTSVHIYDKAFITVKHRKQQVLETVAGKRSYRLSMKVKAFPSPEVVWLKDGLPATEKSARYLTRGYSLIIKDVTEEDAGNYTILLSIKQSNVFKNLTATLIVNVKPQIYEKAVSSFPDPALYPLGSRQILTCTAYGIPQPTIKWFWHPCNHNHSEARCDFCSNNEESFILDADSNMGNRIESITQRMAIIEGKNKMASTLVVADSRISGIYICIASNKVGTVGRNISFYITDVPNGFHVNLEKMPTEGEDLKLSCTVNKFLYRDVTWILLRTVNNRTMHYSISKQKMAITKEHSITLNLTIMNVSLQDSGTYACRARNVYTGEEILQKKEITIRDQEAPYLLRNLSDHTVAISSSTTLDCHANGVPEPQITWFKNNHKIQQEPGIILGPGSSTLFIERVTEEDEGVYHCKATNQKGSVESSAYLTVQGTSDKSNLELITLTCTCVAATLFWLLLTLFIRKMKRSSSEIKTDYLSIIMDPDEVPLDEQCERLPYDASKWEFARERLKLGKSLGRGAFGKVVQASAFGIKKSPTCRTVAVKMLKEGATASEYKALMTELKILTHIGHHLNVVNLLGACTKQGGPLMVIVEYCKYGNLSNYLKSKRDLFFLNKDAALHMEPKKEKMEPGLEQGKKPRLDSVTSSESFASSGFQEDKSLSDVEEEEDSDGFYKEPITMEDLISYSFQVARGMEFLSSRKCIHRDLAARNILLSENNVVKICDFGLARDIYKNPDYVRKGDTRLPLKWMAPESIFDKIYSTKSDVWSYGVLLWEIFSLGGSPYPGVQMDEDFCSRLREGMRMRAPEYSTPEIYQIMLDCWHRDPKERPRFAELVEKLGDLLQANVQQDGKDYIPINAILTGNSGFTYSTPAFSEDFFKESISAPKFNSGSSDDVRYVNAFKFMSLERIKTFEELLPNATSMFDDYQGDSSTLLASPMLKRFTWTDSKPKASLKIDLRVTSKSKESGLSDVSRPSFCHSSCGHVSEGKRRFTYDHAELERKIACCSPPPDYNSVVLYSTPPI
pIC50: −log10 of the molar value.
readoutKind: pIC50

entrySmiles: COC(=O)c1ccc2c(c1)NC(=O)/C2=C(\Nc1ccc(-n2cccc2CN(C)C)cc1)c1ccccc1
readoutKind: pIC50
measuredValue: 7.00
